Sourced from paper PMC6222843

# test_summary: Plasma pharmacokinetics of DTX in rats with or without OPD (LC-MS/MS)
# particulars: male, Sprague-Dawley, rat, po, 50 mg/kg
recorded_metric: AUC(0-inf) (ng·h/mL)
Record the value in ng·h/mL, omitting the unit from your answer.

Problem: State the recorded AUC(0-inf) for this entry: CC(=O)O[C@@]12CO[C@@H]1C[C@H](O)[C@@]1(C)C(=O)[C@H](O)C3=C(C)[C@@H](OC(=O)[C@H](O)[C@@H](NC(=O)OC(C)(C)C)c4ccccc4)C[C@@](O)([C@@H](OC(=O)c4ccccc4)[C@H]21)C3(C)C
Solution: 306

====

# test_summary: Plasma pharmacokinetics of DTX in rats with or without OPD (LC-MS/MS)
# particulars: male, Sprague-Dawley, rat, po, 50 mg/kg
recorded_metric: MRT inf (h)
Record the value in h, omitting the unit from your answer.

Problem: State the recorded MRT inf for this entry: CC(=O)O[C@@]12CO[C@@H]1C[C@H](O)[C@@]1(C)C(=O)[C@H](O)C3=C(C)[C@@H](OC(=O)[C@H](O)[C@@H](NC(=O)OC(C)(C)C)c4ccccc4)C[C@@](O)([C@@H](OC(=O)c4ccccc4)[C@H]21)C3(C)C
Solution: 4.29

====

# test_summary: Transport of VCR across MDCK-MDR1 cell monolayer (A→B)
# Type: in vitro ADME, canine
# particulars: dog, MDCK-MDR1, pH 7.4, VCR 264.46 μmol/L alone, 37 °C, n = 3
Structures can show the parent of a compound that is named as a salt.
recorded_metric: Papp A→B at 2 h, 264.46 μmol/L (×10⁻⁶ cm/s)
Record the value in ×10⁻⁶ cm/s, omitting the unit from your answer.

Problem: State the recorded Papp A→B at 2 h, 264.46 μmol/L for this entry: CC[C@]1(O)C[C@H]2CN(CCc3c([nH]c4ccccc34)[C@@](C(=O)OC)(c3cc4c(cc3OC)N(C=O)[C@H]3[C@@](O)(C(=O)OC)[C@H](OC(C)=O)[C@]5(CC)C=CCN6CC[C@]43[C@@H]65)C2)C1 [VCR, Vincristine sulfate]
Solution: 0.37

====

# test_summary: Plasma pharmacokinetics of DTX in rats with or without OPD (LC-MS/MS)
# particulars: male, Sprague-Dawley, rat, po, 50 mg/kg
recorded_metric: AUC(0-t) (ng·h/mL)
Record the value in ng·h/mL, omitting the unit from your answer.

Problem: State the recorded AUC(0-t) for this entry: CC(=O)O[C@@]12CO[C@@H]1C[C@H](O)[C@@]1(C)C(=O)[C@H](O)C3=C(C)[C@@H](OC(=O)[C@H](O)[C@@H](NC(=O)OC(C)(C)C)c4ccccc4)C[C@@](O)([C@@H](OC(=O)c4ccccc4)[C@H]21)C3(C)C
Solution: 276

====

# test_summary: Plasma pharmacokinetics of DTX in rats with or without OPD (LC-MS/MS)
# particulars: male, Sprague-Dawley, rat, po, 50 mg/kg
recorded_metric: MRT last (h)
Record the value in h, omitting the unit from your answer.

Problem: State the recorded MRT last for this entry: CC(=O)O[C@@]12CO[C@@H]1C[C@H](O)[C@@]1(C)C(=O)[C@H](O)C3=C(C)[C@@H](OC(=O)[C@H](O)[C@@H](NC(=O)OC(C)(C)C)c4ccccc4)C[C@@](O)([C@@H](OC(=O)c4ccccc4)[C@H]21)C3(C)C [DTX, Docetaxel]
Solution: 2.96
